# experimental_target: Alpha2a (Homo sapiens)
# Sequence (P08913 whole entry): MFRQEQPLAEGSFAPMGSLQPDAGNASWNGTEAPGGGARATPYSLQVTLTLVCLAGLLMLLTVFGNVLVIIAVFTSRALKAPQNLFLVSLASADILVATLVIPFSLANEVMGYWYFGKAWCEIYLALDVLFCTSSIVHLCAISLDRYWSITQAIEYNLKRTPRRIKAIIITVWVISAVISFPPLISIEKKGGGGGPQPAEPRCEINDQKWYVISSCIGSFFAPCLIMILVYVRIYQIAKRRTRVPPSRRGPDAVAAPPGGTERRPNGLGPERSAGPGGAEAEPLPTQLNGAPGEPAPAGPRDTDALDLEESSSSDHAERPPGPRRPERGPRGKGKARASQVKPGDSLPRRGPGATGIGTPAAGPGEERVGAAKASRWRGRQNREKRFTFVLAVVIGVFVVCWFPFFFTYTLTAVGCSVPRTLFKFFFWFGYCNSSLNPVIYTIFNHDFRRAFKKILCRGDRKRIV
# method_summary: cell-based
assay_readout: EC50

molecule | assay_readout | observed
O=C(O)[C@H]1C2CCC(CC2)[C@@H]1Nc1nc(-c2n[nH]c3ncc(F)cc23)nc(C2CC2)c1F [ZSP1273] | EC50 | > 12 µM

====

Form field: CC50 (one value per entry).
# method_summary: in vitro
# details: rhesus monkey

molecule | CC50
NC(=O)c1ncn([C@@H]2O[C@H](CO)[C@@H](O)[C@H]2O)n1 [Ribavirin, reference compound] | > 100 µM
O=C(O)[C@H]1C2CCC(CC2)[C@@H]1Nc1nc(-c2n[nH]c3ncc(F)cc23)nc(C2CC2)c1F | > 10 µM
